Cited source: ChEMBL document CHEMBL1641419

biological target: Serine/threonine-protein kinase Chk1 (Homo sapiens, UniProt O14757)
Sequence (O14757 whole entry): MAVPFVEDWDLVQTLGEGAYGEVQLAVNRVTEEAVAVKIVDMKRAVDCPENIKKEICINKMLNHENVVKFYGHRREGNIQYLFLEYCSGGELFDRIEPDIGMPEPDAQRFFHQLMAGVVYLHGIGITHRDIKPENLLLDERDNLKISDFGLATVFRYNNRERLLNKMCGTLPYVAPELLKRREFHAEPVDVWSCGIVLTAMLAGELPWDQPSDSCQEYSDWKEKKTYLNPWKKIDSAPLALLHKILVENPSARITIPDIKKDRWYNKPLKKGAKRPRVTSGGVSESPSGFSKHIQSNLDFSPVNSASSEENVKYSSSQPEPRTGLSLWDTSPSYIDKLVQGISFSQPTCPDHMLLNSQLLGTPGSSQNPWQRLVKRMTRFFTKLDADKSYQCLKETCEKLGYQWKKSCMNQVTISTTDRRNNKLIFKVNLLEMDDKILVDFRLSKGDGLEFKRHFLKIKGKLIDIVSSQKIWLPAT
Below, each entry is listed alongside its reported pIC50.
# log scale: pIC50 equals minus log10 of the concentration in mol/L

Hey, Serine/threonine-protein kinase Chk1 (Homo sapiens, UniProt O14757) data for Nc1c(Br)c(C2CCCNC2)nc2c(-c3cccnc3)cnn12 (configuration not stated) : pIC50 came out at 7.77

Hey, Serine/threonine-protein kinase Chk1 (Homo sapiens, UniProt O14757) data for Cn1cc(-c2cnn3c(N)c(Cl)c(C4CCCNC4)nc23)cn1 (configuration not stated) : pIC50 came out at 8.52

Hey, Serine/threonine-protein kinase Chk1 (Homo sapiens, UniProt O14757) data for Cn1cc(-c2cnn3c(N)c(Br)c(C4CNCCO4)nc23)cn1 (configuration not stated) : pIC50 came out at 6.89

Hey, Serine/threonine-protein kinase Chk1 (Homo sapiens, UniProt O14757) data for Cn1cc(-c2cnn3c(N)c(Br)c(CC4CCCNC4)nc23)cn1 (configuration not stated) : pIC50 came out at 8.15

Hey, Serine/threonine-protein kinase Chk1 (Homo sapiens, UniProt O14757) data for Cn1cc(-c2cnn3c(N)c(Br)c(CCN)nc23)cn1 : pIC50 came out at 7.47

Hey, Serine/threonine-protein kinase Chk1 (Homo sapiens, UniProt O14757) data for Cn1cc(-c2cnn3c(N)c(C#N)c(C4CCCNC4)nc23)cn1 (configuration not stated) : pIC50 came out at 7.00

Hey, Serine/threonine-protein kinase Chk1 (Homo sapiens, UniProt O14757) data for Cn1cc(-c2cnn3c(N)c(Br)c(C4CCNC4)nc23)cn1 (configuration not stated) : pIC50 came out at 7.51

###

target: Cyclin-dependent kinase 2/cyclin A (Homo sapiens, UniProt P24941); experiment: Inhibition of recombinant CDK2/Cyclin A expressed in insect Sf9 cells assessed as inhibition of [33P]-ATP incorporation into biotinylated histone H1 after 1 hr by liquid scintillation counting
pIC50: −log10 of the molar value.
Label met when pIC50 is at or above 6; otherwise label not met.

Below are worked cases with known answers.
[[record]]
compound = "Cn1cc(-c2cnn3c(N)c(-c4ccccc4)c(C4CCCNC4)nc23)cn1 (configuration not stated)"
assigned_label = "not met"

[[record]]
compound = "CC#Cc1c(C2CCCNC2)nc2c(-c3cnn(C)c3)cnn2c1N (configuration not stated)"
assigned_label = "met"

[[record]]
compound = "Cn1cc(-c2cnn3c(N)c(Br)c(C4CCNCC4)nc23)cn1"
assigned_label = "met"


Check this compound for pIC50 at or above 6: Cn1cc(-c2cnn3c(N)c(-c4ccoc4)c(C4CCCNC4)nc23)cn1 (configuration not stated)
not met

Check this compound for pIC50 at or above 6: Cn1cc(-c2cnn3c(N)c(Br)c(C4CCCCN4)nc23)cn1 (configuration not stated)
not met

###

target: Cyclin-dependent kinase 2/cyclin A (Homo sapiens); assay: Inhibition of recombinant CDK2/Cyclin A expressed in insect Sf9 cells assessed as inhibition of [33P]-ATP incorporation into biotinylated histone H1 after 1 hr by liquid scintillation counting
Reported property: IC50 (nM)
Answer format: numeric, nM implied, no suffix.

// below: answered compounds
[[record]]
compound = "Cn1cc(-c2cnn3c(N)c(-c4cccnc4)c(C4CCCNC4)nc23)cn1 (configuration not stated)"
tested_target = "Cyclin-dependent kinase 2/cyclin A (Homo sapiens)"
reported_property = "IC50"
experimental_result = 1500

[[record]]
compound = "Cn1cc(-c2cnn3c(N)c(I)c(C4CCCNC4)nc23)cn1 (configuration not stated)"
tested_target = "Cyclin-dependent kinase 2/cyclin A (Homo sapiens)"
reported_property = "IC50"
experimental_result = 330

[[record]]
compound = "Cn1cc(-c2cnn3c(N)c(Br)c(CC4CCNCC4)nc23)cn1"
tested_target = "Cyclin-dependent kinase 2/cyclin A (Homo sapiens)"
reported_property = "IC50"
experimental_result = 2800

[[record]]
compound = "Cn1cc(-c2cnn3c(N)c(-c4ccsc4)c(C4CCCNC4)nc23)cn1 (configuration not stated)"
tested_target = "Cyclin-dependent kinase 2/cyclin A (Homo sapiens)"
reported_property = "IC50"
experimental_result = 2200

[[record]]
compound = "Cn1cc(-c2c(C3CCCNC3)nc3c(-c4cnn(C)c4)cnn3c2N)cn1 (configuration not stated)"
tested_target = "Cyclin-dependent kinase 2/cyclin A (Homo sapiens)"
reported_property = "IC50"
experimental_result = 22000

[[record]]
compound = "Cn1cc(-c2cnn3c(N)c(CCO)c(C4CCCNC4)nc23)cn1 (configuration not stated)"
tested_target = "Cyclin-dependent kinase 2/cyclin A (Homo sapiens)"
reported_property = "IC50"
experimental_result = 48


Record Nc1c(Br)c(C2CCCNC2)nc2c(-c3cccnc3)cnn12 (configuration not stated) , field IC50: 170

Record Cn1cc(-c2cnn3c(N)c(Br)c(C4CNCCO4)nc23)cn1 (configuration not stated) , field IC50: 1200

Record CCc1c(C2CCCNC2)nc2c(-c3cnn(C)c3)cnn2c1N (configuration not stated) , field IC50: 330

Record Cn1cc(-c2cnn3c(N)c(Br)c(C4CCNC4)nc23)cn1 (configuration not stated) , field IC50: 510

Record COC/C=C/c1c(C2CCCNC2)nc2c(-c3cnn(C)c3)cnn2c1N (configuration not stated) , field IC50: 2200

Record Nc1c(Br)c(C2CCCNC2)nc2c(-c3ccoc3)cnn12 (configuration not stated) , field IC50: 100

Record Cn1cc(-c2cnn3c(N)c(Br)c(C4CNCCS4)nc23)cn1 (configuration not stated) , field IC50: 150

Record Cn1cc(-c2cnn3c(N)c(Cl)c(C4CCCNC4)nc23)cn1 (configuration not stated) , field IC50: 310

Record Cn1cc(-c2cnn3c(N)c(Br)c(C[C@H]4CCC[C@@H](N)C4)nc23)cn1 (relative stereo) , field IC50: 440

Record Cc1ncc(-c2cnn3c(N)c(Br)c(C4CCCNC4)nc23)s1 (configuration not stated) , field IC50: 200

Record Cn1cc(-c2cnn3c(N)c(C#N)c(C4CCCNC4)nc23)cn1 (configuration not stated) , field IC50: 1700
